Tested on: P-Akt (S473)
Protocol: Cell based AlphaLISA assay, inhibition of P-Akt (S473) (mTORC2 substrate phosphorylation) in MDA-MB-468 cells
Test settings: Homo sapiens, MDA-MB-468, 4 h, AlphaLISA, two to four hours at 37° C., read-out: pIC50 for Inhibition of mTORC1 and mTORC2 Substrate Phosphorylation, p-AKT 1/2/3 -(S473) (converted)
Property label: IC50

CCO[C@@H]1C[C@@H]([C@H](C)C[C@@H]2CC[C@H](n3cc(COC(=O)NCCOCCOCCOCCC(=O)NCCOCCOCCOCCC(=O)NCCCCn4nc(-c5ccc6oc(N)nc6c5)c5c(N)ncnc54)nn3)[C@H](OC)C2)OC(=O)[C@@H]2CCCCN2C(=O)C(=O)[C@]2(O)O[C@@H](CC[C@H]2C)C[C@H](OC)/C(C)=C/C=C/C=C/[C@@H](C)C[C@@H](C)C(=O)[C@H](OC)[C@H](O)/C(C)=C/[C@H]1C [Example 149]	0.0316 to 1 µM

Recall the recorded IC50 for CCO[C@@H]1C[C@@H]([C@H](C)C[C@@H]2CC[C@H](n3cc(CCCC(=O)NCCOCCOCCOCCC(=O)NCCOCCOCCC(=O)NCCCCn4nc(-c5cc6cc(O)ccc6[nH]5)c5c(N)ncnc54)nn3)[C@H](OC)C2)OC(=O)[C@@H]2CCCCN2C(=O)C(=O)[C@]2(O)O[C@@H](CC[C@H]2C)C[C@H](OC)/C(C)=C/C=C/C=C/[C@@H](C)C[C@@H](C)C(=O)[C@H](OC)[C@H](O)/C(C)=C/[C@H]1C [Example 166] with P-Akt (S473) and state it.
> 1 µM

* * *

System: P-Akt (S473)
Protocol: Cell based AlphaLISA assay, inhibition of P-Akt (S473) (mTORC2 substrate phosphorylation) in MDA-MB-468 cells
Test settings: Homo sapiens, MDA-MB-468, 4 h, AlphaLISA, two to four hours at 37° C., read-out: pIC50 for Inhibition of mTORC1 and mTORC2 Substrate Phosphorylation, p-AKT 1/2/3 -(S473) (converted)
Property label: IC50

CO[C@H]1C[C@@H]2CC[C@@H](C)[C@@](O)(O2)C(=O)C(=O)N2CCCC[C@H]2C(=O)O[C@H]([C@H](C)C[C@@H]2CC[C@@H](O)[C@H](OC)C2)C/C(=N/OCc2cn(CCOCCOCCOCCOCCOCCOCCOCCOCCC(=O)NCCCCn3nc(-c4ccc5oc(N)nc5c4)c4c(N)ncnc43)nn2)[C@H](C)/C=C(\C)[C@@H](O)[C@@H](OC)C(=O)[C@H](C)C[C@H](C)/C=C/C=C/C=C/1C [Example 63]	31.6 to 1000 nM

Data request, read-out IC50, for COc1ccc(-c2ccc3ncc4c(c3c2)n(-c2ccc(N3CCN(C(=O)CCOCCOCCOCCOCCOCCOCCn5cc(CON=C6[C@H](C)C[C@H](C)/C=C/C=C/C=C(\C)[C@@H](OC)C[C@@H]7CC[C@@H](C)[C@@](O)(O7)C(=O)C(=O)N7CCCC[C@H]7C(=O)O[C@H]([C@H](C)C[C@@H]7CC[C@@H](O)[C@H](OC)C7)C[C@@H](O)[C@H](C)/C=C(\C)[C@@H](O)[C@H]6OC)nn5)CC3)c(C(F)(F)F)c2)c(=O)n4C)cn1 [Example 52]
3.16 to 31.6 nM

Moving on to CO[C@H]1C[C@@H]2CC[C@@H](C)[C@@](O)(O2)C(=O)C(=O)N2CCCC[C@H]2C(=O)O[C@H]([C@H](C)C[C@@H]2CC[C@@H](OCCOCc3cn(CCOCCOCCOCCOCCOCCOCCC(=O)NCCCCn4nc(-c5ccc6oc(N)nc6c5)c5c(N(C)C)ncnc54)nn3)[C@H](OC)C2)CC(=O)[C@H](C)/C=C(\C)[C@@H](O)[C@@H](OC)C(=O)[C@H](C)C[C@H](C)/C=C/C=C/C=C/1C [Example 10]
> 1000 nM

Moving on to CO[C@H]1C[C@@H]2CC[C@@H](C)[C@@](O)(O2)C(=O)C(=O)N2CCCC[C@H]2C(=O)O[C@H]([C@H](C)C[C@@H]2CC[C@@H](OCCC(C)(C)Cc3cn(CCOCCOCCOCCOCCOCCOCCC(=O)NCCCCn4nc(-c5ccc6oc(N)nc6c5)c5c(N)ncnc54)nn3)[C@H](OC)C2)CC(=O)[C@H](C)/C=C(\C)[C@@H](O)[C@@H](OC)C(=O)[C@H](C)C[C@H](C)/C=C/C=C/C=C/1C [Example 59]
3.16 to 31.6 nM

Moving on to CO[C@H]1C[C@@H]2CC[C@@H](C)[C@@](O)(O2)C(=O)C(=O)N2CCCC[C@H]2C(=O)O[C@H]([C@H](C)C[C@@H]2CC[C@@H](OCCCCc3cn(CCOCCOCCOCCNC(=O)CCCC(=O)NCCCCn4nc(-c5ccc6oc(N)nc6c5)c5c(N)ncnc54)nn3)[C@H](OC)C2)CC(=O)[C@H](C)/C=C(\C)[C@@H](O)[C@@H](OC)C(=O)[C@H](C)C[C@H](C)/C=C/C=C/C=C/1C [Example 100]
3.16 to 31.6 nM

* * *

Test system: P-Akt (S473)
Protocol: Cell based AlphaLISA assay, inhibition of P-Akt (S473) (mTORC2 substrate phosphorylation) in MDA-MB-468 cells
Test settings: Homo sapiens, 4 h, AlphaLISA, two to four hours at 37° C., read-out: pIC50 for Inhibition of mTORC1 and mTORC2 Substrate Phosphorylation, p-AKT 1/2/3 -(S473) (converted)
Property label: IC50

Recorded results for 5 molecules are shown here.
CO[C@H]1C[C@@H]2CC[C@@H](C)[C@@](O)(O2)C(=O)C(=O)N2CCCC[C@H]2C(=O)O[C@H]([C@H](C)C[C@@H]2CC[C@@H](OCCCCc3cn(CCOCCOCCOCCOCCOCCOCCC(=O)NCCCCn4nc(-c5cc6cc(O)ccc6[nH]5)c5c(N)ncnc54)nn3)[C@H](OC)C2)CC(=O)[C@H](C)/C=C(\C)[C@@H](O)[C@@H](OC)C(=O)[C@H](C)C[C@H](C)/C=C/C=C/C=C/1C	31.6 to 1000 nM
CO[C@H]1C[C@@H]2CC[C@@H](C)[C@@](O)(O2)C(=O)C(=O)N2CCCC[C@H]2C(=O)O[C@H]([C@H](C)C[C@@H]2CC[C@@H](OCCCCc3cn(CCOCCOCCOCCOCCOCCOCCC(=O)NCCCCn4nc(-c5cnc6[nH]ccc6c5)c5c(N)ncnc54)nn3)[C@H](OC)C2)CC(=O)[C@H](C)/C=C(\C)[C@@H](O)[C@@H](OC)C(=O)[C@H](C)C[C@H](C)/C=C/C=C/C=C/1C	31.6 to 1000 nM
CO[C@H]1C[C@@H]2CC[C@@H](C)[C@@](O)(O2)C(=O)C(=O)N2CCCC[C@H]2C(=O)O[C@H]([C@H](C)C[C@@H]2CC[C@@H](OCCCCc3cn(CCOCCOCCOCCOCCOCCOCCOCCOCCC(=O)NCCCCn4nc(-c5cc6cc(O)ccc6[nH]5)c5c(N)ncnc54)nn3)[C@H](OC)C2)CC(=O)[C@H](C)/C=C(\C)[C@@H](O)[C@@H](OC)C(=O)[C@H](C)C[C@H](C)/C=C/C=C/C=C/1C	3.16 to 31.6 nM
CO[C@H]1C[C@@H]2CC[C@@H](C)[C@@](O)(O2)C(=O)C(=O)N2CCCC[C@H]2C(=O)O[C@H]([C@H](C)C[C@@H]2CC[C@@H](OCCOCc3cn(CCOCCOCCOCCOCCOCCOCCOCCOCCC(=O)NCCCCn4nc(-c5cc6cc(O)ccc6[nH]5)c5c(N)ncnc54)nn3)[C@H](OC)C2)CC(=O)[C@H](C)/C=C(\C)[C@@H](O)[C@@H](OC)C(=O)[C@H](C)C[C@H](C)/C=C/C=C/C=C/1C	3.16 to 31.6 nM
CO[C@H]1C[C@@H]2CC[C@@H](C)[C@@](O)(O2)C(=O)C(=O)N2CCCC[C@H]2C(=O)O[C@H]([C@H](C)C[C@@H]2CC[C@@H](OCCCCc3cn(CCOCCOCCOCCOCCOCCOCCOCCOCCC(=O)N4CCC(Cn5nc(-c6ccc7oc(N)nc7c6)c6c(N)ncnc65)CC4)nn3)[C@H](OC)C2)CC(=O)[C@H](C)/C=C(\C)[C@@H](O)[C@@H](OC)C(=O)[C@H](C)C[C@H](C)/C=C/C=C/C=C/1C	< 3.16 nM

Consider now this further molecule.
Data request, read-out IC50, for COc1ccc(-c2ccc3ncc4c(c3c2)n(-c2ccc(N3CCN(C(=O)CCOCCOCCOCCOCCOCCOCCn5cc(CCCCO[C@@H]6CC[C@@H](C[C@@H](C)[C@@H]7CC(=O)[C@H](C)/C=C(\C)[C@@H](O)[C@@H](OC)C(=O)[C@H](C)C[C@H](C)/C=C/C=C/C=C(\C)[C@@H](OC)C[C@@H]8CC[C@@H](C)[C@@](O)(O8)C(=O)C(=O)N8CCCC[C@H]8C(=O)O7)C[C@H]6OC)nn5)CC3)c(C(F)(F)F)c2)c(=O)n4C)cn1
< 3.16 nM
